Biological target: bovine trypsin (bovine, UniProt P00760 24-246)
Sequence (P00760 24-246): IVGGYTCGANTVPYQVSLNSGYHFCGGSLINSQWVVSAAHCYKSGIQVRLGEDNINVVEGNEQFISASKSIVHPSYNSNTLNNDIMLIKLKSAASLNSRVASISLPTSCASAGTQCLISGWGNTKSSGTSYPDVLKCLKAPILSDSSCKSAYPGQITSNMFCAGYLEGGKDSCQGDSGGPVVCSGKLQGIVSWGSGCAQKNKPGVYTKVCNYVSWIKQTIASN
Assay: trypsin (50 nM) BApNA hydrolysis, OD405; peptide at 97.56 µM
Bridge positions count the residues as written; N and C are the ends. Ends that are not written are not given here.
observable: Residual trypsin activity (%)
Numeric answer only, unit % assumed.

query: Could you tell me which Residual trypsin activity (%) is on file for CGRSTKSIPPICF (disulfide 1-12 (inferred), synthetic) [BT47] ?
result: 0.1

query: Could you tell me which Residual trypsin activity (%) is on file for CGTATKSIPPICF (disulfide 1-12 (inferred), synthetic) [BT25] ?
result: 0.2

query: Could you tell me which Residual trypsin activity (%) is on file for CGRAAKSIPPICF (disulfide 1-12 (inferred), synthetic) [BT26] ?
result: 0.1

query: Could you tell me which Residual trypsin activity (%) is on file for CGRYTKSIPPICF (disulfide 1-12 (inferred), synthetic) [BT53] ?
result: 0

Ref: patent US20230416329A1
